- Study System: DCC-PfSSB (wild-type PfSSB labeled with IDCC) (Plasmodium falciparum, UniProt Q8I415 77-284)
- Assay Overview: fluorescence titration; high salt, 125 pM DCC-PfSSB; single titration; High salt buffer (composition not in material) or low salt buffer (20 mM NaCl); pH and temperature not in material
- Condition Details: protein: recombinant; tags: DCC (diethylaminocoumarin) at C93; chain copies: 4; single strand
Test Readout: Kd (pM)
Give the value in pM but do not write pM after it.

Item dT70 (ssDNA) DNA: TTTTTTTTTTTTTTTTTTTTTTTTTTTTTTTTTTTTTTTTTTTTTTTTTTTTTTTTTTTTTTTTTTTTTT has what recorded Kd? 1.2
